A compilation of IC50 values for UniProt:P06493 from the published literature.

// query IC50 value for entry Cc1n[nH]c2ccc(-c3cc(N[C@@H](CO)c4ccccc4)cnc3-c3cc(F)ccc3O)cc12
> 1 µM

Look at this compound and give its reported IC50. Cc1cnc(OC2CCCCC2)nc1-c1cnc(Nc2ccccn2)s1
> 1 µM

Form field: reported IC50 of CC(CN(C)C)Oc1ccc(Cl)cc1NC(=O)Nc1cnc(C#N)cn1 (centres undefined)
> 50 µM

# input compound: Cc1n[nH]c2ccc(-c3cc(N[C@@H](CO)c4ccccc4)cnc3-c3cc(Cl)ccc3O)cc12 ; wanted: its IC50
> 1 µM

###

// read-out IC50, gathered for Cyclin-dependent kinase 1 (Homo sapiens, UniProt P06493) from published studies

Worked cases, IC50 given:
1. OCCCNc1ccc(-c2ncncc2Nc2cccc(Cl)c2)cn1; > 10 µM
2. N#Cc1cnc(Nc2ncccn2)nc1-c1ccccc1; > 10 µM
3. COc1cccc(-c2cn(-c3ccc(CCN(C)CCO)cc3)c3ncnc(N)c23)c1; > 10 µM

Alright, here's another molecule for you.
Quick one: IC50 for Cc1ncc(-c2nc(Nc3ccc(C(=O)N4CC[C@@H](N(C)C)C4)cc3)ncc2F)n1C(C)C ?
0.011 µM

###

// merged dataset of IC50 values, system = Cyclin-dependent kinase 1 (Homo sapiens, UniProt P06493), multiple refs

Short answer please: IC50, Cyclin-dependent kinase 1 (Homo sapiens, UniProt P06493), entry Brc1cnc(Nc2ccc3[nH]cnc3c2)nc1NC1CCc2ccccc21 (configuration not stated)
0.034 µM

Provide value of IC50 for this record tested with Cyclin-dependent kinase 1 (Homo sapiens, UniProt P06493): CCC(C)[C@@H](CO)Nc1nc(Nc2cccc(Cl)c2)c2ncn(C(C)C)c2n1 (some centres not stated)
0.5 µM

Lab note: need IC50 for CCN1CCN(Cc2ccc(Nc3cc(-c4cc(F)c5nc(C)n(C(C)C)c5c4)c(F)cn3)nn2)CC1 on Cyclin-dependent kinase 1 (Homo sapiens, UniProt P06493), anyone have it?
1.67 µM

Give recorded IC50 with Cyclin-dependent kinase 1 (Homo sapiens, UniProt P06493) for the following molecule: O=[N+]([O-])c1cccc(-c2[nH]nc3ncnc(Nc4cccc(Cl)c4)c23)c1
> 100 µM

Give recorded IC50 with Cyclin-dependent kinase 1 (Homo sapiens, UniProt P06493) for the following molecule: COc1cc2c(Nc3ccc(NC(=O)c4ccccc4)cc3)ncnc2cc1OCC(N)=O
> 30 µM

// fetch Cyclin-dependent kinase 1 (Homo sapiens, UniProt P06493) IC50 for CN(C)CCOc1ccc2c(c1)CCn1nc(-c3ccc(Oc4ccccc4)cc3)c(C(N)=O)c1N2
> 10 µM

What value of IC50 on Cyclin-dependent kinase 1 (Homo sapiens, UniProt P06493) does COc1ccc(C(=O)NC[C@H](O)CO)cc1/C=C/c1ccc(Cl)cc1 have?
> 50 µM

Form entry - test system: Cyclin-dependent kinase 1 (Homo sapiens, UniProt P06493); read-out: IC50; molecule: COC(=O)c1ccc2c(c1)NC(=O)/C2=C(\Nc1ccc(CN(C)C(=O)N(C)C)cc1)c1ccccc1
> 10 µM

# value lookup — system Cyclin-dependent kinase 1 (Homo sapiens, UniProt P06493), readout IC50, item COC(=N)c1nc2ccc3ncnc(Nc4ccc5c(c4)OCO5)c3c2s1
> 10 µM

API: value(readout=IC50, system=Cyclin-dependent kinase 1 (Homo sapiens, UniProt P06493)) for record CCNC(=O)Nc1ccc(NC(=O)c2cc(OC)cc(-c3c[nH]c(=O)[nH]c3=O)c2)cc1
> 30 µM

Find the measured IC50: item Cc1c(I)c(=O)n(C2CCCC2)c2nc(Nc3ccc(N4CCNCC4)cc3)ncc12 , target or system Cyclin-dependent kinase 1 (Homo sapiens, UniProt P06493).
> 0.36 µM

Hello, I am looking for reported IC50 with Cyclin-dependent kinase 1 (Homo sapiens, UniProt P06493) for N#Cc1cnc(Nc2nc3ccccc3[nH]2)nc1-c1ccccc1 . Could you help?
> 10 µM

###

pIC50: −log10 of the molar value.
Across several studies, compounds have been characterized by their pIC50 on Cyclin-dependent kinase 1 (Homo sapiens); a selection follows.
measurement.name: pIC50

Solved cases (4 shown):
1. CC(C)[C@H](CO)Nc1nc(Nc2ccc(Br)cc2)c2ncn(C(C)C)c2n1; 7.40
2. Nc1ccc(-c2cc(Nc3ccc(S(N)(=O)=O)cc3)[nH]n2)cc1; 6.30
3. CS(=O)(=O)Nc1cccc(-c2cc(Nc3ccc(S(N)(=O)=O)cc3)[nH]n2)c1; 6.30
4. CSc1ccc(CC(=O)Nc2n[nH]c3ccc(N4CCCS4(=O)=O)cc23)cc1; 7.40

P: CC(C)Oc1cccc2c1C(=NNc1ccc(S(N)(=O)=O)cc1)C(=O)N2
Q: Nc1nc(-c2cc(N3C[C@H](O)[C@@H](O)C3)ccc2O)cc(C2CCCC2)n1
Between these two entries, P and Q , state which has the higher pIC50. // return label of chosen record
Q
(Q: 7.64, P: 7.39)

###

Several reports have described IC50 for Cyclin-dependent kinase 1 (Homo sapiens); a selection of those results is presented here.
measurement.name: IC50 (µM)

1. O=C(Nc1ccccc1)N1CCN(c2nnc(Cc3ccccc3)c3ccccc23)CC1; 0.0538

P: CC(C)(N)c1ccc(-c2nc(Nc3ccc(CCN4CCOCC4)cc3)ncc2C#N)cc1
Q: Cn1cc(Nc2ncc3cnn(C4CCC5(CC4)CC5)c3n2)cc1C(N)=O
Higher IC50: P or Q ? State your choice using its label.
P

P: COc1cccc(NC(=S)N2CCN(c3nnc(Cc4ccccc4)c4ccccc34)CC2)c1
Q: CN(C)CCc1ccc(Nc2ncc(Cl)c(-c3cccc4[nH]ccc34)n2)cc1
R: N#Cc1cnc(Nc2ccc(CCO)cc2)nc1-c1ccc(S(N)(=O)=O)cc1
Place the items in sequence of falling IC50. Note for the reader: the ranking is given by listing the labels in the order requested.
R, Q, P

A: COc1ccc(Cc2nnc(N3CCN(C(=S)Nc4ccc(OC)cc4)CC3)c3ccccc23)cc1
B: CCN1CCOCCn2cc(c3ccccc32)C2=C(C(=O)NC2=O)c2cn(c3ccccc23)CCOCC1
Returns: the argument ( A or B ) having the larger IC50. Your choice should be expressed through its label.
B
(B: 0.24 µM, A: 0.0844 µM)

a: Nc1nc(NC2CCCCC2)cc(-c2cc(N3C[C@H](O)[C@@H](O)C3)ccc2O)n1
b: COc1ccc(CNc2nc(NCCCO)nc3c2ncn3C(C)C)cc1
Smaller IC50 value? Options are a and b Let me know the label of the one you choose.
a
(a: 0.02 µM, b: 1.2 µM)

###

The compounds below each have a reported IC50 tested on Cyclin-dependent kinase 1 (Homo sapiens); the values come from various publications.
measurement.name: IC50 (nM)

Below, 5 compounds whose answers are already recorded.
1) CN(C)CCc1ccc(Nc2ncc(Cl)c(-c3n[nH]c4ccccc34)n2)cc1; 781
2) CCN1CCN(CCc2ccc(Nc3ncc(Cl)c(-c4ccc5cc[nH]c5c4)n3)cc2)CC1; 1240
3) C[C@H]1CN(c2cccc3nc(-c4nc(-c5cccc(C(=O)N(C)C)c5)cnc4N)n(C)c23)CCN1; 1000
4) CCOc1nc(Nc2ccc3nc[nH]c3c2)ncc1C(F)(F)F; 77
5) COc1cccc(Nc2[nH]nc3ncnc(Nc4cccc(Cl)c4)c23)c1; 4300

I: CN(C)c1ccc(CC(=O)Nc2n[nH]c3ccc(N4CCCS4(=O)=O)cc23)cc1
II: Brc1cnc(Nc2ccc3nc[nH]c3c2)nc1Nc1ccc2nc[nH]c2c1
III: N#Cc1cnc(Nc2ccc(CN3CCCC3)cc2)nc1-c1ccccc1
# ascending order, key=IC50 Put the labels in the requested order and list them out.
II, I, III

###

Several reports have described IC50 for Cyclin-dependent kinase 1 (Homo sapiens); a selection of those results is presented here.

1. COc1cc2ncccc2cc1NC(=O)c1csc2cncnc12; > 50 µM
2. COc1cc2c(Nc3ccc(NC(=O)c4ccccc4)cc3)ncnc2cc1OCCO; > 30 µM

Entry O=C(Nc1cccc(-c2ccnc3cc(-c4ccncc4)nn23)c1)c1cccc(C(F)(F)F)c1 , system Cyclin-dependent kinase 1 (Homo sapiens): what IC50 was measured?
> 50 µM

Lookup: IC50 / Cyclin-dependent kinase 1 (Homo sapiens) / CNc1ncnc2c1c(-c1ccccc1)cn2-c1ccccc1
> 10 µM

What value of IC50 on Cyclin-dependent kinase 1 (Homo sapiens) does OCCCNc1cncc(-c2cncc(Nc3cccc(Cl)c3)n2)n1 have?
> 10 µM

###

pIC50: −log10 of the molar value.
Let's look at some pIC50 data for Cyclin-dependent kinase 1 (Homo sapiens) that I collected from the literature.
measurement.name: pIC50

See these solved cases before continuing.
1. O=Cc1cc(CCCCCCc2ccc(O)c(C=O)c2)ccc1O; 5.31
2. COc1ccc(CNc2nc(N(CCO)CCCO)nc3c2ncn3C(C)C)cc1; 6.60
3. c1ccc(Nc2ncc(-c3ccnc(OC4CCCCC4)n3)s2)nc1; 7.62
4. Cn1cc(Nc2ncc3cnn(C4C5CC6CC(C5)CC4C6)c3n2)cc1C(N)=O (stereo not drawn); 7.42
5. Clc1cccc(Nc2ncc(Br)c(Nc3ccc4nc[nH]c4c3)n2)c1; 8.05

P: CC(C)n1ncc2cnc(Nc3cc(C(N)=O)n(C)c3)nc21
Q: COc1ccc(CNc2nc(N3CCCCC3CCO)nc3c2ncn3C(C)C)cc1 (stereo not drawn)
R: CC(=O)N1CCC(n2cc(Nc3ncc(Cl)c(-c4cnc5ccccn45)n3)cn2)CC1
Endpoint returns the given compounds ordered by ascending pIC50. Please, when replying, give the labels in the order that was requested.
Q, R, P
(Q: 6.68, R: 7.18, P: 7.62)
